Cited source: ChEMBL document CHEMBL2034963

- measured on: UniProt O42275
- Sequence (O42275 whole entry): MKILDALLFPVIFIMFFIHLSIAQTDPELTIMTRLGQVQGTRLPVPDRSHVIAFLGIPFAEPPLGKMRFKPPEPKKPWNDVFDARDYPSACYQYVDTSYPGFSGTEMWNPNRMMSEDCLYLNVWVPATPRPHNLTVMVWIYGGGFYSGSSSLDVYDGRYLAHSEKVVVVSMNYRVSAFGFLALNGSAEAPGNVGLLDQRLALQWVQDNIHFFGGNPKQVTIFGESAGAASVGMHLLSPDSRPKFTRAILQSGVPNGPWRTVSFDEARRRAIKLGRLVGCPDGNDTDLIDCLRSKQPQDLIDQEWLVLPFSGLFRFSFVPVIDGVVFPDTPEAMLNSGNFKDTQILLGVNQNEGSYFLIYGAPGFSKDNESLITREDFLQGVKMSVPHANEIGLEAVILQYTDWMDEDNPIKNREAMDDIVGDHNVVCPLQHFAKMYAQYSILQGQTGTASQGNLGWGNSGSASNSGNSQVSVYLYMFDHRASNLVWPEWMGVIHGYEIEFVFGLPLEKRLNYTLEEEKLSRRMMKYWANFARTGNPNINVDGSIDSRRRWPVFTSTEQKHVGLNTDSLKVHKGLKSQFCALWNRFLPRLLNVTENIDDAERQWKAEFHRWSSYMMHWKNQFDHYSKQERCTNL
hey, just use Criterion met if measured IC50 is less than 600 nM, otherwise Criterion not met

Ask: Please determine if Cn1nc(C#N)c2c(N)c3c(nc21)CCCC3 is below 600 nM in terms of IC50.
Result: Criterion not met

Ask: Please determine if Cn1nc2nc3c(c(N)c2c1C#N)CCCC3 is below 600 nM in terms of IC50.
Result: Criterion met

Ask: Please determine if CC(=O)Nc1nn(C)c2nc3nc4c(c(N)c3cc12)CCCC4 is below 600 nM in terms of IC50.
Result: Criterion met

Ask: Please determine if Cn1nc(C(N)=O)c2c(NCCCCCCOc3ccccc3)c3c(nc21)CCCC3 is below 600 nM in terms of IC50.
Result: Criterion not met

Ask: Please determine if CC(=O)Nc1nn(C)c2nc3nc4c(c(N)c3c(-c3ccccc3)c12)CCCC4 is below 600 nM in terms of IC50.
Result: Criterion met
